meta.source: BigSolDB 2.1

Settings: in MIBK, 343.15 K
observable: solubility (mole fraction)
API note: the answer field is a bare number with no unit suffix.

Param item = CC(CO)(CO)C(=O)O ; retrieve measured solubility (mole fraction). 0.0274

* * *

Details: in cyclopentyl methyl ether, 298.15 K
observable: solubility (mole fraction)
API note: the answer field is a bare number with no unit suffix.

Param item = CC(CO)(CO)C(=O)O ; retrieve measured solubility (mole fraction). 0.00164

* * *

Details: in gamma-valerolactone, 323.15 K
observable: solubility (mole fraction)

Param item = CC(CO)(CO)C(=O)O ; retrieve measured solubility (mole fraction). 0.0146

* * *

Settings: in gamma-butyrolactone, 298.15 K
observable: solubility (mole fraction)
API note: the answer field is a bare number with no unit suffix.

Param item = CC(CO)(CO)C(=O)O ; retrieve measured solubility (mole fraction). 0.00637
